Origin of values: PubChem BioAssay (NCI)

System: MCF7 breast
Method description: NCI-60 one-dose screen, 48 h (100 = growth as untreated, 0 = no growth, -100 = all killed)
Assay context: 10 µM
This is part of a sample that, as a whole, favours compounds with a hit. Of some 83,000 tested, about 20% had one in any assay.
Field 'label' (enum: T / F). Set to T when growth is strictly under 10%; else F.

Below are worked cases with known answers.
NC1CCC(Nc2nc(NCc3ccc(-c4cccs4)nc3)c3ncn(C4CCCC4)c3n2)CC1 (stereo unspecified) = T
CS(=O)(=O)Nc1ccc(Nc2c3ccccc3nc3cc(Cl)ccc23)cc1 = F
NC(=O)C1CCCN(Cc2c[nH]c3ccccc23)C1 (stereo unspecified) = F
CNC(=O)c1cc(Oc2ccc(NC(=O)Nc3ccc(Cl)c(OC(C)C)c3)c(F)c2)ccn1 = F
Cc1cc(Cl)ccc1Nc1nc(C(F)(F)F)ccc1C(=O)N/N=C/c1ccccc1Cl = F
CCCCNC(=O)Oc1ccc(/C(=C(\C)c2ccc(OC)cc2)c2ccc(OCCN3CCCCC3)cc2)cc1 = F
COc1ccc(CSc2nc3cc(OC)c(OC)cc3c(=O)n2-c2ccc(OC)cc2OC)cc1 = F
Cc1nnc2c3nnc(-c4ccc(Cl)cc4)n3c3ccccc3n12 = F

(Q) Criterion: growth strictly below 10%. Is it met by O=C(NC1CCCC1)c1ccc(N2CCC(NCc3cccc(C(F)(F)F)c3)CC2)cc1 ?
(A) F

(Q) Criterion: growth strictly below 10%. Is it met by COC(=O)[C@]12CC[C@@H](C)[C@H](C)[C@@H]1C1=CC[C@@H]3[C@@]4(C)CC(=O)[C@H](O)[C@@]5(C)COC(=C45)C[C@@]3(C)[C@]1(C)CC2 ?
(A) T

(Q) Criterion: growth strictly below 10%. Is it met by COc1ccc(-c2cc(=O)n(-c3nc4ccccc4[nH]3)[nH]2)cc1OC ?
(A) F

(Q) Criterion: growth strictly below 10%. Is it met by CC(C)C[C@H](NC(=O)CCn1ccc2ccccc2c1=O)B(O)O ?
(A) F

(Q) Criterion: growth strictly below 10%. Is it met by COc1ccc(CCc2nc3cc(-c4c(C)noc4C)ccc3n2CCN2CCOCC2)cc1 ?
(A) F

* * *

System: CAKI-1 renal
Method description: NCI-60 one-dose screen, 48 h (100 = growth as untreated, 0 = no growth, -100 = all killed)
Assay context: 10 µM
Description: Growth inhibition of the CAKI-1 human tumor cell line is measured as a screen for anti-cancer activity. Cells are grown in 96 well plates and exposed to the test compound for 48 hours. Compounds are tested at a single concentration, which is 10^-5 M for most compounds. The reported endpoint is percent growth (GI% or GIPRCNT), where numbers from 0 - 100% represent growth inhibition, and numbers from -100% - 0 represent cell death. For example, a value of 40 represents 60% growth inhibition. […]
The panel holds about 83,000 compounds, 20% with a hit somewhere; the sample as a whole holds those more often.
Classify by growth. Ranges: lower band (below 50%), central band (50% to below 90%), upper band (90% or more)

Cc1noc(C)c1-c1ccc2nc(NC(=O)[C@H]3CCN(C#N)C3)cn2c1 = central band
CCOC(=S)Sc1ccc([N+](=O)[O-])cc1[N+](=O)[O-] = lower band
NC(N)=NS(=O)(=O)c1ccc(Nc2ccc3nnc(-c4ccncc4)n3n2)cc1 = upper band
Cc1cc(Nc2cccc(F)c2)nc(NCc2ccccc2)n1 = lower band
CCOc1nc(-c2ccccc2)cc2c(O)c(C(=O)NC(C)C)[nH]c(=O)c12 = upper band

(Q) Categorize the following entry: COCCOC(=O)NC(=O)Nc1ccc(C(=O)c2ccc(Cl)cc2)cc1
(A) lower band

(Q) Categorize the following entry: CCOC(=O)CNC(=O)Nc1ccc(Oc2ccc(NC(=O)NCC(=O)OCC)cc2)cc1
(A) upper band

(Q) Categorize the following entry: FC(F)(F)c1ccc(-c2nc(-c3nc4cc(Cl)c(Cl)cc4[nH]3)c3ccccn23)cc1
(A) central band

(Q) Categorize the following entry: CCCCNC(=O)Oc1ccc(/C(=C(\C)c2ccc(OC)cc2)c2ccc(OCCN3CCCCC3)cc2)cc1
(A) central band

(Q) Categorize the following entry: CCOC(=O)CSC(=S)SCC(=O)OCC
(A) upper band

(Q) Categorize the following entry: CCCc1c(C)nc2scc(-c3ccc(Cl)cc3)n2c1=O
(A) upper band

(Q) Categorize the following entry: COc1c(-c2c3sc(=O)[nH]c3nc3c2c(=O)[nH]n3C(C)C)cc2c(c1OC)OCO2
(A) upper band

(Q) Categorize the following entry: O=C(NC1CCCC1)c1ccc(N2CCC(NCc3cccc(C(F)(F)F)c3)CC2)cc1
(A) upper band

(Q) Categorize the following entry: CCOC(=O)C(CCC1=NC(C)(C)CC(C)O1)C(=O)OCC (configuration not stated)
(A) lower band

(Q) Categorize the following entry: COc1cc(-c2cc(-c3cc(OC)c(OC)c(OC)c3)nc3nc(N)[nH]c(=O)c23)ccc1Oc1ccnc2cc(Cl)ccc12
(A) lower band

(Q) Categorize the following entry: Cc1[nH]nc2c(=S)[nH]c(=O)[nH]c12
(A) upper band

(Q) Categorize the following entry: Cc1ccc(C2C=C(c3ccc(Cl)cc3)N=C3SC=CN32)c(Br)c1 (configuration not stated)
(A) central band

(Q) Categorize the following entry: COc1ccc(-c2csc(NC(=O)CO[N+](=O)[O-])n2)cc1
(A) upper band

(Q) Categorize the following entry: NC1CCC(Nc2nc(NCc3ccc(-c4ccccc4O)nc3)c3ncn(C4CCCC4)c3n2)CC1 (configuration not stated)
(A) lower band

(Q) Categorize the following entry: CC(=O)Nc1nc(C)c(C(=O)N/N=C/c2cccn2C)s1
(A) upper band
